System: serotonin ulcer
Assay Explanation: Inhibitory activity on serotonin ulcer
Format: in vivo, SD-strain male rats
Condition Details: 100 mg/kg oral, 30 min before serotonin 20 mg/kg s.c., rats
Counter-ions that a name gives are not always drawn.
Readout Type: Ulcer inhibiting ratio
Please give the number followed by its unit.

Please review the entries below; each comes with its answer.
NCC1CCC(C(=O)Oc2ccc(CCC(=O)O)cc2)CC1 (stereo not shown) [drawing 47, reference compound]    17.5%
NCCCCCC(O)c1ccc(CCC(=O)O)cc1 (stereo not shown) [(302)]    68.1%
CCOC(=O)CCc1ccc(C(=O)CCCCCN)cc1 [(121) hydrochloride]    72.3%

Please turn your attention to the following entry.
So for "NC[C@H]1CC[C@H](C(=O)c2ccc(CCC(=O)O)cc2)CC1" , the logged Ulcer inhibiting ratio turned out to be 76.7%

----------
Field: Clot lysis time. Provide a value for each of the compounds that follow.
Test System: plasmin (Homo sapiens, UniProt P00747)
Construct: fibrin clot lysis, native
Sequence (P00747 97-810): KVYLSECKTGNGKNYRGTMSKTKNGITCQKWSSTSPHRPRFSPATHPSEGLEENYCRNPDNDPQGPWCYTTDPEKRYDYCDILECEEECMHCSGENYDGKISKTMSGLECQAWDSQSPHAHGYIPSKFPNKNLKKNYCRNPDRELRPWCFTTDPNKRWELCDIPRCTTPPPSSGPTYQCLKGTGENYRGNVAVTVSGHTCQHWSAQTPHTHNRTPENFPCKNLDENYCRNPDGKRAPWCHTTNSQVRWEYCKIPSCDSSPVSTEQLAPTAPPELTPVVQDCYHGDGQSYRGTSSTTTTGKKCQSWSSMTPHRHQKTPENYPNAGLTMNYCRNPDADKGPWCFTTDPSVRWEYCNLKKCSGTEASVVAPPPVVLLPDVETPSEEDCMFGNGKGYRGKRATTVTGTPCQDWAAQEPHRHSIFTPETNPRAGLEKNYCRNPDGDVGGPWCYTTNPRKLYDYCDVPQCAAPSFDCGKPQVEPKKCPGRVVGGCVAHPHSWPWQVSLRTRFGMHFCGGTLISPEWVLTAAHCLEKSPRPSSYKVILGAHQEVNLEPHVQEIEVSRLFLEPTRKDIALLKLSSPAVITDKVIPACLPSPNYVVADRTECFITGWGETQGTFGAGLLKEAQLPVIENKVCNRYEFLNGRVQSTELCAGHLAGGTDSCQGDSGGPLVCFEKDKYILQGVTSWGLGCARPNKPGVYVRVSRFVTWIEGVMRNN
Assay Explanation: Antiplasmin activity (clot lysis time, fibrinogen/urokinase/thrombin)
Type: biochemical
Condition Details: 10^-3 M; first series, control 391.7 ± 16.1
Method: Human fibrinogen was dissolved in a phosphate-buffered physiological saline (PBS) at a pH of 7.4 to prepare a 0.2% solution. Urokinase and thrombin were dissolved similarly in PBS to prepare a solution containing 120 units of urokinase and 50 units of thrombin per ml. […] The time which elapsed from the dissolution of the coagulated mass until the glass ball dropped onto the bottom of the test tube was measured. […]
Answers are plain numbers, in s.

Please review the entries below; each comes with its answer.
NC[C@H]1CC[C@H](C(=O)c2ccc(CCC(=O)O)cc2)CC1    980.0
Cl.NC[C@H]1CC[C@H](C(O)c2ccc(CCC(=O)O)cc2)CC1 (relative stereo) [trans (307) hydrochloride]    546.7

Please turn your attention to the following entry.
So for Cl.NCCCCCC(=O)c1ccc(CCC(=O)O)cc1 [(102) hydrochloride] , the logged Clot lysis time turned out to be 476.7

----------
Test system: thrombin
Assay Explanation: Antithrombin activity (recalcification time of plasma)
Condition Details: 5 × 10^-3 M; rabbit plasma, second series, control 103.3 ± 7.6
Counter-ions that a name gives are not always drawn.
Readout Type: Recalcification time (s)
Give bare numbers, in s.

NCCCCCC(O)c1ccc(CCC(=O)O)cc1 (stereo not shown)    82.7
CCOC(=O)CCc1ccc(C(=O)CCCCCN)cc1 [(121) hydrochloride]    96.0
Cl.NCCCCCC(=O)c1ccc(CCC(=O)O)cc1 [(102) hydrochloride]    67.0

Please turn your attention to the following entry.
So for Cl.NC[C@H]1CC[C@H](C(O)c2ccc(CCC(=O)O)cc2)CC1 (relative stereo) [trans (307) hydrochloride] , the logged Recalcification time turned out to be 80.7

----------
Test System: plasmin (Homo sapiens, UniProt P00747)
Construct: fibrin clot lysis, native
Assay Explanation: Antiplasmin activity (clot lysis time, fibrinogen/urokinase/thrombin)
Type: biochemical
Condition Details: 10^-4 M; first series, control 391.7 ± 16.1
Field: Clot lysis time. Provide a value for each of the compounds that follow.
Give bare numbers, in s.

Please review the entries below; each comes with its answer.
Cl.NC[C@H]1CC[C@H](C(O)c2ccc(CCC(=O)O)cc2)CC1 (relative stereo) [trans (307) hydrochloride]    411.7
Cl.NCCCCCC(=O)c1ccc(CCC(=O)O)cc1 [(102) hydrochloride]    423.3

So for "NC[C@H]1CC[C@H](C(=O)c2ccc(CCC(=O)O)cc2)CC1" , the logged Clot lysis time turned out to be 561.2
